Hello, the source for this data is ChEMBL document CHEMBL1926556, in case you need it.

# system.under.test: Alpha-2A adrenergic receptor (Homo sapiens)
# procedure.details: Agonist activity at human adrenoceptor alpha2A expressed in CHOK1 cells assessed as stimulation of agonist-induced [35S]GTPgammaS binding by scintillation counting assay relative to noradrenaline
# Type: functional, cell-based
# protocol.conditions: CHO-K1
measure: Emax (%)
Reply numerically in %, unit not repeated.

Inquiry: Item under review: Cl.Clc1cccc2cnn(CC3=NCCN3)c12 . Reported Emax?
Reply text: 7.4

Inquiry: Field entry: NC[C@H](O)c1ccc(O)c(O)c1
Reply text: 100

Inquiry: Now the compound Cl.c1ccc2c(c1)cnn2CC1=NCCN1
Reply text: 6.3

Inquiry: What about Cc1cccc2cnn(CC3=NCCN3)c12.Cl ?
Reply text: 6.3

====

# procedure.details: Displacement of [3H]BFI from imidazoline I2 receptor in Sprague-Dawley rat brain membranes after 45 mins by scintillation counting
# Type: cell membranes, Membrane
measure: log10(Ki) (log10 of the value in µM)
Please interpret these as log10 of Ki where Ki is in µM.

Inquiry: Need log10(Ki) of Cc1cc2nnn(CC3=NCCN3)c2cc1C.Cl.Cl , thanks.
Reply text: 1.42

Inquiry: Same thing, different molecule: Cc1cccc2c1ncn2CC1=NCCN1.Cl.Cl
Reply text: 1.39

Inquiry: Item: Cl.Clc1cccc2cnn(CC3=NCCN3)c12
Reply text: -0.26

Inquiry: Note, next up: Cc1cccc2nn(CC3=NCCN3)nc12.Cl.Cl
Reply text: -1.11

Inquiry: Same lookup for Cc1cc2ncn(CC3=NCCN3)c2cc1C.Cl.Cl , please.
Reply text: 1.45

Inquiry: What do we get for Cl.Clc1cccc2c1cnn2CC1=NCCN1 ?
Reply text: 0.45

Inquiry: Next molecule up: Cl.c1ccc2c(c1)nnn2CC1=NCCN1
Reply text: -0.09

====

# system.under.test: Adrenergic receptor alpha-1 (Rattus norvegicus, UniProt P15823+P23944+P43140)
# Sequence (P15823 whole entry): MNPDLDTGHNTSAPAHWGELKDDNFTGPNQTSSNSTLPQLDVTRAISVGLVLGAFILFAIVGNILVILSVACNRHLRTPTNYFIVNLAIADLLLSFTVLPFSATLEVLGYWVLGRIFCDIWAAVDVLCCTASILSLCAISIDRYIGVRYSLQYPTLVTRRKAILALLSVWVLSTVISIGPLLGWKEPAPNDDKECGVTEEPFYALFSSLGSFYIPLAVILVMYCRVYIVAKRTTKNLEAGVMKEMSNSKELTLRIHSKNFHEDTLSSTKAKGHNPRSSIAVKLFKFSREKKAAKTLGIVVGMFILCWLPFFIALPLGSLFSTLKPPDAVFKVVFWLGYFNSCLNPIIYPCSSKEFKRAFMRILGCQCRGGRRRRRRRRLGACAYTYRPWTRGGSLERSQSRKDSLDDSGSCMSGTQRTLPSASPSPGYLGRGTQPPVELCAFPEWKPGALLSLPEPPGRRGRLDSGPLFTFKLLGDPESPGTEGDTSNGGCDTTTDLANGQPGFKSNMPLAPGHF
# Sequence (P23944 whole entry): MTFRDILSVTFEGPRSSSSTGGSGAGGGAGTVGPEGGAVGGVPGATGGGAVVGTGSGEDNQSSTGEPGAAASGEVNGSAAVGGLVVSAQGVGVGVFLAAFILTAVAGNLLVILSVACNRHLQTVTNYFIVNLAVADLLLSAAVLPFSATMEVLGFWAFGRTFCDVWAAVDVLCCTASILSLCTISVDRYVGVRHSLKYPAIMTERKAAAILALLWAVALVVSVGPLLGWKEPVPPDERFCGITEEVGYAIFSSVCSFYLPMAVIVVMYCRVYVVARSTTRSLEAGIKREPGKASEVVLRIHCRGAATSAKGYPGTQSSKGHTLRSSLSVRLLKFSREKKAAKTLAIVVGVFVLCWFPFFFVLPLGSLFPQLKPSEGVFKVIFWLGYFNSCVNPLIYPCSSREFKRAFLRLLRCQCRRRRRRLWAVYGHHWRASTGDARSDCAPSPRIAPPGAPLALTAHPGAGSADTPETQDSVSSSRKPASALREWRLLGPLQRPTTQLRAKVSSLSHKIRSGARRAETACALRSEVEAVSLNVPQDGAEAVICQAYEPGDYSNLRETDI
# Sequence (P43140 whole entry): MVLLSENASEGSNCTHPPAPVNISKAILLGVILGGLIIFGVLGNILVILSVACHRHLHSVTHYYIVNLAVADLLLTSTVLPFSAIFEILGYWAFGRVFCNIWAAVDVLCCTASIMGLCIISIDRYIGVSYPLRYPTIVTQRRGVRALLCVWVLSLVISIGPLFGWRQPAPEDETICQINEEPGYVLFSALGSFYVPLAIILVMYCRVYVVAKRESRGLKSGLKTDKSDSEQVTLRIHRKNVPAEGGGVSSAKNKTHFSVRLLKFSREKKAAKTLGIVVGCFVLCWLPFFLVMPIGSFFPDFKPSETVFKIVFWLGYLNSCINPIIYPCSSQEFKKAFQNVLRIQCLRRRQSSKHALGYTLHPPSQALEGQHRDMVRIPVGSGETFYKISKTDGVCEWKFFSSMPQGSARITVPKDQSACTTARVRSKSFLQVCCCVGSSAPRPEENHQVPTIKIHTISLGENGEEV
# procedure.details: Displacement of [3H]prazosin from adrenoceptor alpha1 in Sprague-Dawley rat brain after 45 mins by scintillation counting
Lab note: class by Ki, see small value = under 400 nM, mid value = from 400 nM up to 2000 nM, large value = 2000 nM and over

Inquiry: Category of Cc1cccc2nn(CC3=NCCN3)nc12.Cl.Cl :
Reply text: mid value

Inquiry: Follow-up item: Cc1cc2nnn(CC3=NCCN3)c2cc1C.Cl.Cl
Reply text: large value

Inquiry: Lookup CCc1nc2ccccc2n1CC1=NCCN1.Cl.Cl
Reply text: large value

Inquiry: Now this one: Cc1cc2ncn(CC3=NCCN3)c2cc1C.Cl.Cl
Reply text: mid value

Inquiry: Another compound to look at: Cc1cccc2cnn(CC3=NCCN3)c12.Cl
Reply text: small value

Inquiry: Try this compound too: Cl.Cl.c1ccc(Cc2nc3ccccc3n2CC2=NCCN2)cc1
Reply text: large value

Inquiry: Queued: Cc1cc2nn(CC3=NCCN3)nc2cc1C.Cl.Cl
Reply text: large value

Inquiry: Likewise for CCc1nc2cc(C)c(C)cc2n1CC1=NCCN1.Cl.Cl ?
Reply text: large value

Inquiry: Next entry: Cc1nn(CC2=NCCN2)c2ccccc12.Cl.Cl
Reply text: small value

Inquiry: What about Cl.Cl.c1ccc(-c2nc3ccccc3n2CC2=NCCN2)cc1 ?
Reply text: mid value

Inquiry: Now give it for Cl.Clc1cccc2c1cnn2CC1=NCCN1 too.
Reply text: small value

Inquiry: And Cl.Cl.c1ccc2c(c1)ncn2CC1=NCCN1 ?
Reply text: mid value

Inquiry: What do you get for COc1cccc2c1cnn2CC1=NCCN1.Cl.Cl ?
Reply text: mid value

Inquiry: Entry to check: Cc1ccc2c(cnn2CC2=NCCN2)c1.Cl.Cl
Reply text: small value

Inquiry: Quick one: Cc1nc2ccccc2n1CC1=NCCN1.Cl.Cl
Reply text: mid value

Inquiry: Next compound: Cl.Clc1cccc2cnn(CC3=NCCN3)c12
Reply text: small value

Inquiry: Param item: Cc1cccc2c1ncn2CC1=NCCN1.Cl.Cl
Reply text: mid value

Inquiry: Can you handle Cl.Fc1cccc2cnn(CC3=NCCN3)c12 next?
Reply text: small value

Inquiry: Moving on to the next compound: Cl.c1ccc2c(c1)nnn2CC1=NCCN1
Reply text: mid value

Inquiry: Item: Cl.c1ccc2c(c1)cnn2CC1=NCCN1
Reply text: small value
